Method notes: NCI Yeast Anticancer Drug Screen. Data for the bub3 strain (AID 167)
Condition label: S. cerevisiae bub3 mutant strain, at 50.0 µM, hits give high values
This is part of a sample that, as a whole, favours compounds with a hit. Of some 79,000 tested, about 15% had one in any assay. Activity calls are given as the source filed them. Rule as the data show it: active = growth inhibition above about 70%; inactive = the rest.
Attribute: growth inhibition

Entry S=C1SC(=Nc2ccccc2)C(=Nc2ccccc2)N1c1ccc2ccccc2c1 ; growth inhibition = 27.9% (inactive)

---

Method notes: NCI Yeast Anticancer Drug Screen. Data for the bub3 strain (AID 167)
Condition label: S. cerevisiae bub3 mutant strain, at 50.0 µM, hits give high values
Compounds without any hit were thinned out: in the full panel of roughly 79,000, 15% have a hit.
Label T when growth inhibition is at or above 10%; anything below gets F.

Consider the worked cases shown below.
INSERT INTO results (compound, category_label) VALUES
  ('Cc1c(C=O)cc(-c2ccccc2)n1C', 'F'),
  ('O=C(O)c1ccccc1SC(Sc1ccccc1C(=O)O)c1ccccc1', 'T'),
  ('CCOC(=O)C(C(=O)OCC)=C1N[C@H](C(=O)OCC)CS1', 'F');

Can COC(=O)c1cccn1C(=O)c1ccc(C)c(OCc2ccccc2)c1[N+](=O)[O-] be said to have growth inhibition at or above 10%?
T

Check if growth inhibition >= 10% (inclusive). Item: Cc1cccc(C)c1NC(=O)CCC(=O)CC(=O)C(C)C
F

Is reported growth inhibition greater than or equal to 10% here: CCN(CC)c1ccc(/C=C2\SC(=S)NC2=O)cc1
F

Confirm if growth inhibition reported for the compound CS(=O)c1nsc(S(C)=O)c1C#N (stereo not drawn) is 10% or above.
F

Determine whether this compound has growth inhibition no lower than 10%: CCN(CC)CCN(C(=O)c1ccc(F)cc1)c1ccccc1N
F

Record CCCCCCCC(=O)NN(Cn1c(=S)sc2ccccc21)Cn1c(=S)sc2ccccc21 ; criterion: growth inhibition no lower than 10%. Met?
F

Check the entry Cc1cc(C)c(C(=O)/C(O)=C/c2ccccc2)c(C)c1 : does growth inhibition equal or exceed 10%?
F

Please indicate if the recorded growth inhibition for Cc1ccc(N(C(=O)Nc2ccccc2)C2=NCC(C)S2)cc1C (stereo not drawn) meets or exceeds 10%.
T

Could you verify whether the entry CC(=O)Oc1ccc(=O)[nH]c1 shows growth inhibition of no less than 10%?
F

Reported growth inhibition reaches at least 10% for O=c1c(SCc2ccccc2)c(N2CCOCC2)cnn1-c1ccccc1 ?
T

Is reported growth inhibition greater than or equal to 10% here: CCOc1nc(=O)n(CC(=O)c2ccc(Cl)s2)cc1F
T

Given CCOC(=O)CSc1ncnc2nc[nH]c12 , state whether its growth inhibition is at least 10%.
T

Entry CCOC(=O)C(C)(NC(=O)c1ccc(NCc2ccc3nc(NC(=O)c4ccccc4)nc(NC(=O)c4ccccc4)c3c2)cc1)C(=O)OCC : is its growth inhibition no less than 10%?
F

I'd appreciate it if you could say whether Cc1ccc(C(c2ccc(C)c(C)c2)C(O)C(O)C(O)C(O)CO)cc1C (stereo not drawn) has growth inhibition at least equal to 10%.
F

Please indicate if the recorded growth inhibition for CCCC(=O)Nc1cc(C(=O)N2C[C@@H]3C[C@]34C2=CC(=O)c2[nH]cc(C)c24)n(COC)c1 meets or exceeds 10%.
F

Reported growth inhibition reaches at least 10% for CC(=O)Cc1ccc2[nH]c(C)cc(=O)c2c1 ?
F

In plain terms: is recorded growth inhibition at least 10% for O=c1[nH]c2cc(Cl)ccc2nc1/C(=N\Nc1ccccc1)C(O)c1ccc(Cl)c(Cl)c1 (stereo not drawn) ?
T

Given NC(=S)N/N=C/c1cc([N+](=O)[O-])ccc1O , state whether its growth inhibition is at least 10%.
F

Form field: growth inhibition at least 10%? Entry: Nc1nc(SCc2ccccc2[N+](=O)[O-])c2[nH]cnc2n1
T

---

Method notes: NCI Yeast Anticancer Drug Screen. Data for the cln2 rad14 strain (AID 165);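 also: 0% = growth equal to vehicle treated cultures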
Condition label: S. cerevisiae cln2 rad14 strain, at 50.0 µM, hits give high values
Compounds without any hit were thinned out: in the full panel of roughly 79,000, 15% have a hit.
Experimental endpoint: growth inhibition (%)
Numeric answer only, unit % assumed.

As a guide, the following entries are already answered.
INSERT INTO measurements (molecule, experimental_endpoint, recorded_number) VALUES
  ('Nc1nc(SCC(=O)c2ccc(Br)cc2)c2[nH]cnc2n1', 'growth inhibition', 10.1),
  ('C(/C=C/c1csnn1)=C\c1ccccc1', 'growth inhibition', 15.8),
  ('C[C@]12CCC(=O)C=C1CC[C@@H]1[C@@H]2[C@@H](O)C[C@@]2(C)[C@H]1CC[C@]2(O)C(=O)CO', 'growth inhibition', 7),
  ('CC(=O)/C=C/N(C)c1ccc(O)cc1', 'growth inhibition', 9.3),
  ('O=S(=O)(O)CS(=O)(=O)O', 'growth inhibition', -26.4),
  ('N=c1sc(N2CCOCC2)nn1CC(=O)c1ccccc1', 'growth inhibition', 4.35),
  ('CC(c1ccccc1)C1OCCO1 (stereo not drawn)', 'growth inhibition', -30.8),
  ('CC1CNC(=O)C(=O)N1 (stereo not drawn)', 'growth inhibition', -13.4),
  ('CSCCC(N)C(=O)NCCS(=O)(=O)O (stereo not drawn)', 'growth inhibition', -8),
  ('COc1ccc(NC(=O)C(F)(F)F)cc1', 'growth inhibition', -2.2);

Moving on to the next molecule.
Value of measured growth inhibition for the entry COC1=CC(=O)O/C1=C(\OC)C1OC1c1ccccc1 (stereo not drawn) : -1.35

---

Method notes: NCI Yeast Anticancer Drug Screen. Data for the cln2 rad14 strain (AID 165);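 also: 0% = growth equal to vehicle treated cultures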
Condition label: S. cerevisiae cln2 rad14 strain, at 50.0 µM
Method: Growth inhibition of yeast strains with defined genetic alterations is measured as a screen for potential anti-cancer activity. Selected strains with alterations in DNA damage repair or cell cycle control were exposed to compounds and growth inhibition was measured relative to vehicle treated controls. The strain used in this assay is cln2 rad14
The panel holds about 79,000 compounds, 15% with a hit somewhere; the sample as a whole holds those more often. Calls of active or inactive are those of the source. Cut-off read from the data, not from the text of the source: active = growth inhibition above about 70%; inactive = the rest.
Your reply should match one of these outcome classes. class 1 (active), class 0 (inactive)

Answered examples (2):
INSERT INTO assay_data (molecule, category_label) VALUES
  ('CCN(CC)CN1C(=O)C(=O)c2ccccc21', 'class 0'),
  ('O=C(N/N=C/c1ccc(Cl)cc1)c1ccccc1NC(=O)C1CC1', 'class 0');

Hey, what did the test say about COC(=O)c1cccn1C(=O)c1ccc(C)c(OCc2ccccc2)c1[N+](=O)[O-] ?
class 0

---

Method notes: NCI Yeast Anticancer Drug Screen. Data for the bub3 strain (AID 167)
Condition label: S. cerevisiae bub3 mutant strain, at 50.0 µM, hits give high values
The panel holds about 79,000 compounds, 15% with a hit somewhere; the sample as a whole holds those more often.
Overview of recorded growth inhibition for various compounds
Numeric answer only, unit % assumed.

Example results:
INSERT INTO measurements (compound, experimental_endpoint, recorded_number) VALUES
  ('CN(C(=O)c1cccs1)C(=S)N1CCN(c2ccccn2)CC1', 'growth inhibition', -7.85),
  ('Cc1cnc2cccc(C)c2c1Cl', 'growth inhibition', 8.3),
  ('CN(C)c1ccc(C(=O)C2CCCCC2)cc1', 'growth inhibition', -5.2),
  ('CCC(C)C(NN)C(=O)O (stereo not drawn)', 'growth inhibition', 0),
  ('N[C@@H](Cc1ccccc1)C(=O)NCCNC(=O)[C@@H](N)Cc1ccccc1', 'growth inhibition', -0.7),
  ('C/C(=N\NC(=O)C[N+](C)(C)C)c1sc(-c2cccnc2)nc1C', 'growth inhibition', -4.4),
  ('O=C(O)CNC1=NCCN1', 'growth inhibition', -24.1),
  ('Fc1ccc2nncc(/C=C/c3ccccn3)c2c1', 'growth inhibition', 24.2),
  ('S=C(Nc1cccc2ccccc12)N1CCCCC1', 'growth inhibition', 61),
  ('c1ccc2c(c1)C1C3c4ccccc4C1C1C2C31', 'growth inhibition', 3.5);

Reported growth inhibition for CCCCCC/C=C/CCCCCCCC(=O)O was -1.75

The recorded growth inhibition for entry Cc1cc(C)c2nc(N)sc2c1 equals 12.4

Field growth inhibition (entry Cc1c(C(=O)CC(=O)C(=O)Nc2cccc(C(F)(F)F)c2)[n+](=O)c2ccccc2n1[O-] ) reads 38.4

---

Quick reference for growth inhibition among some compounds
Method notes: NCI Yeast Anticancer Drug Screen. Data for the mec2-1 strain (AID 157)
Condition label: S. cerevisiae mec2-1 strain, at 50.0 µM, hits give high values
About 79,000 compounds went through this panel and 15% of them were active in at least one assay; those are over-represented in the sample as a whole.
Return type: number; implicit unit %.

Examples from the recorded data:
INSERT INTO results (compound, recorded_number) VALUES
  ('N#C/C=C\c1ccc(F)cc1', 9.7),
  ('O=C(O)C(O)c1c[nH]c2ccccc12 (centres undefined)', -2.3),
  ('OC(Cc1ccccc1)CN1CCN(c2ccccc2)CC1 (centres undefined)', 4),
  ('N#C/C(=C\c1ccco1)C(=O)c1ccco1', 15.1),
  ('CCOC(=O)Nc1cc(Cl)c2nnn(C(=O)OCC)c2n1', 98.2);

Short answer for CN1CC2=C(C1)C(N(C(=O)c1ccc(-c3ccccc3)cc1)C(=O)c1ccc(-c3ccccc3)cc1)=NCN2 : growth inhibition was 3.25

CCC(C)C(N=C1N=CNC2=NC=NC12)C(=O)O (centres undefined) yielded growth inhibition of -27.8

Value of measured growth inhibition for the entry CCCC(=O)OCC(C)(C)CC(C)C : -57.9

Field growth inhibition (entry C1CCC2(CC1)CCCO2 ) reads 6.2

Each recorded value in this set is attributed to PubChem BioAssay (NCI).
